# Test description: yeast TOR reporter LAP4-GFP retest – cell-based, third cherry pick, flow cytometry, confirmation (AID 504338);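 note: ratio to plate DMSO wells so 100% equals DMSO level rather than 0%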
# Condition: S. cerevisiae LAP4-GFP strain, 3 h, at 10 µM, active compounds read high
Value type: GFP response vs DMSO (%)
One number for each entry, in %.

Completed entries (count: 5):
Nn1cnc2c(c1=O)C1(CCCCC1)Cc1ccccc1-2
97.2
Cn1c(NCCO)nc2c(c1=O)C1(CCCCC1)Cc1ccccc1-2
104
NC(=O)c1ccnc2c(O)cccc12
101
OCCN1CCN(c2ncnc3ccc(Br)cc23)CC1
104
COCCCNc1nc(N)c([N+](=O)[O-])c(Nc2ccccc2OC)n1
106

For every item in the list below, what is its measured GFP response vs DMSO?
1. OCc1ccc(O)c2ncccc12
2. CC(C)Nc1ncnc2ccc(Br)cc12
3. COc1ccccc1-c1cc(C(F)(F)F)nc(S(C)(=O)=O)n1
4. CSc1ccccc1OCc1cc(C(=O)N2CCN(C)C(c3ccccc3)C2)no1 (centres undefined)

Result:
[101, 106, 128, 107]

For every item in the list below, what is its measured GFP response vs DMSO?
1. CC(=O)Nc1ccc(-c2nc3cc(Cl)ccc3o2)cc1
2. COc1ccc(NC(=O)O/N=C2/CCCc3ccc(OC)cc32)cc1
3. CCCCC(=O)NCCc1cc2c(OC)ccc(OC)c2[nH]c1=O

Result:
1: 104; 2: 107; 3: 108

For every item in the list below, what is its measured GFP response vs DMSO?
1. O=C(O)c1ccc(C=NNC(=O)c2cccc3ccccc23)cc1
2. O=C(N/N=C/c1ccccc1O)c1cccc2ccccc12

Result:
[104, 110]
